Where do the numbers come from? From patent US20230355597A1.

- System: Rif^r APEC O78
- TEST_PROTOCOL: In vivo efficacy of growth inhibitors in APEC infected broiler chickens
- CONDITION_SUMMARY: oral gavage twice a day, 5 days; untreated mortality (58.34%) normalized to 100%
QUANTITY: reduction of APEC induced mortality (%)
Reply with just the number (in %).

Record COc1cc(CNCCc2ccc3ccccc3c2)ccc1OCC(O)CN1CCCC1 (stereo not drawn) : what is its reduction of APEC induced mortality with Rif^r APEC O78?
42.86

Record COc1ccc(CNCc2cccc(C(F)(F)F)c2)cc1OCC(O)CN1CCCC1 (stereo not drawn) : what is its reduction of APEC induced mortality with Rif^r APEC O78?
71.42

Record CC(=O)OC(C(Br)C(=O)c1ccc([N+](=O)[O-])cc1)C(Cl)(Cl)Cl (stereo not drawn) : what is its reduction of APEC induced mortality with Rif^r APEC O78?
71.42

Record CCN1C(=Cc2ccc3ccccc3[n+]2CC)C=Cc2ccccc21.[Cl-] : what is its reduction of APEC induced mortality with Rif^r APEC O78?
42.86

Record CC1CCCN(CCC(=O)c2ccc(Br)cc2)C1.Cl (stereo not drawn) : what is its reduction of APEC induced mortality with Rif^r APEC O78?
14.28

Record CCCCCCCCCCCCCCCC[n+]1ccn(CC#N)c1 : what is its reduction of APEC induced mortality with Rif^r APEC O78?
42.86
